Assayed system: amyloid plaques (Homo sapiens, UniProt P05067)
Construct: fibrillary Aβ plaques consisting predominately of aggregates of Aβ40 and Aβ42 peptides
Sequence (P05067 672-713 limits assumed): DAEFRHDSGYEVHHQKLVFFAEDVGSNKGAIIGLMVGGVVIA
Sequence (P05067 672-711 limits assumed): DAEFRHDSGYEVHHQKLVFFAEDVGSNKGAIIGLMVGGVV
Experiment summary: Ki values of Phen-Nap, Nap-Phen derivatives (Ki binding data)
Property label: Ki
Please answer in the form of a number followed by its unit of measurement.

// solved cases for Ki follow
COc1ccc(-c2ccc3cc(N(C)C)ccc3c2)cc1 ... 1.4 nM
Nc1ccc2cc(-c3ccc(O)cc3)ccc2c1 ... 33.5 nM
CN(C)c1ccc2cc(-c3ccc(OCCOCCOCCF)cc3)ccc2c1 [Compound 18a] ... 5.6 nM

In: Name the reported Ki value associated with the compound Nc1ccc(-c2ccc3cc(OCCOCCOCCF)ccc3c2)cc1 [Compound 11a]
Out: 12.5 nM

In: Name the reported Ki value associated with the compound CN(C)c1ccc(-c2ccc3cc(OCCOCCOCCF)ccc3c2)cc1 [Compound 12a]
Out: 3.1 nM

====

Assayed system: amyloid plaques (Homo sapiens)
Construct: fibrillary Aβ plaques consisting predominately of aggregates of Aβ40 and Aβ42 peptides
Experiment summary: Ki values of Phen-Nap, Nap-Phen derivatives (Ki binding data)
pKi: −log10 of the molar value.
Threshold rule: pKi greater than or equal to 8 is class 1; below that, class 0.

CNc1ccc(-c2ccc3nc(OCCOCCOCCF)ccc3c2)cc1 [Compound 34a] ... class 1

In: Could you verify whether the entry Nc1ccc(-c2ccc3nc(OCCOCCOCCO)ccc3c2)cc1 [Compound 33b] shows pKi of no less than 8?
Out: class 0

In: Could you verify whether the entry CNc1ccc(-c2ccc3cc(OCCOCCOCCF)ccc3c2)cc1 [Compound 13a] shows pKi of no less than 8?
Out: class 1

In: Could you verify whether the entry Nc1ccc(-c2ccc3nc(OCCOCCOCCF)ccc3c2)cc1 [Compound 33a] shows pKi of no less than 8?
Out: class 0

In: Could you verify whether the entry CNc1ccc(-c2ccc3cc(OCCOCCOCCO)ccc3c2)cc1 [Compound 13b] shows pKi of no less than 8?
Out: class 1

In: Could you verify whether the entry Nc1ccc2cc(-c3ccc(OCCOCCOCCF)cc3)ccc2c1 [Compound 17a] shows pKi of no less than 8?
Out: class 0

====

Experiment summary: Biodistribution in ICR mice after an iv injection
Format: in vivo
Measurement conditions: Heart, 2 hr after iv injection
Each record here notes measured % dose/g.
Express it in % dose/g; write the number only.

// solved cases for % dose/g follow
CNc1ccc2cc(-c3ccc(OCCOCCOCC[18F])cc3)ccc2c1 [[^18F]19a] ... 1.40
CNc1ccc(-c2ccc3cc(OCCOCCOCCF)ccc3c2)cc1 ... 1.79
CNc1ccc(-c2ccc3nc(OCCOCCOCC[18F])ccc3c2)cc1 [[^18F]34a] ... 1.71

Next, consider the following compound.
In: Name the reported % dose/g value associated with the compound CN(C)c1ccc(-c2ccc3nc(OCCOCCOCC[18F])ccc3c2)cc1 [[^18F]32a]
Out: 1.28

====

Experiment summary: Biodistribution in ICR mice after an iv injection
Assay type: in vivo
Measurement conditions: Kidney, 30 min after iv injection
Each record here notes measured % dose/organ.
Express it in % dose/organ; write the number only.

In: Name the reported % dose/organ value associated with the molecule CN(C)c1ccc(-c2ccc3nc(OCCOCCOCC[18F])ccc3c2)cc1 [[^18F]32a]
Out: 1.55

In: Name the reported % dose/organ value associated with the molecule CNc1ccc(-c2ccc3nc(OCCOCCOCC[18F])ccc3c2)cc1 [[^18F]34a]
Out: 1.69

In: Name the reported % dose/organ value associated with the molecule CNc1ccc(-c2ccc3cc(OCCOCCOCCF)ccc3c2)cc1
Out: 1.45

In: Name the reported % dose/organ value associated with the molecule CNc1ccc2cc(-c3ccc(OCCOCCOCC[18F])cc3)ccc2c1 [[^18F]19a]
Out: 1.38

====

Each record here notes measured % dose/organ.
Experiment summary: Biodistribution in ICR mice after an iv injection
Type: in vivo
Measurement conditions: Kidney, 2 min after iv injection
Express it in % dose/organ; write the number only.

// solved cases for % dose/organ follow
CNc1ccc(-c2ccc3cc(OCCOCCOCCF)ccc3c2)cc1 ... 3.27
CN(C)c1ccc(-c2ccc3nc(OCCOCCOCC[18F])ccc3c2)cc1 [[^18F]32a] ... 5.25
CNc1ccc(-c2ccc3nc(OCCOCCOCC[18F])ccc3c2)cc1 [[^18F]34a] ... 5.22

Next, consider the following compound.
In: Name the reported % dose/organ value associated with the compound CNc1ccc2cc(-c3ccc(OCCOCCOCC[18F])cc3)ccc2c1 [[^18F]19a]
Out: 3.06

====

Experiment summary: Biodistribution in ICR mice after an iv injection
Format: in vivo
Measurement conditions: Liver, 2 min after iv injection
Each record here notes measured % dose/organ.
Express it in % dose/organ; write the number only.

// solved cases for % dose/organ follow
CNc1ccc(-c2ccc3nc(OCCOCCOCC[18F])ccc3c2)cc1 [[^18F]34a] ... 21.2
CNc1ccc2cc(-c3ccc(OCCOCCOCC[18F])cc3)ccc2c1 [[^18F]19a] ... 32.0

In: Name the reported % dose/organ value associated with the compound CNc1ccc(-c2ccc3cc(OCCOCCOCCF)ccc3c2)cc1
Out: 26.5

In: Name the reported % dose/organ value associated with the compound CN(C)c1ccc(-c2ccc3nc(OCCOCCOCC[18F])ccc3c2)cc1 [[^18F]32a]
Out: 19.4

====

Experiment summary: Biodistribution in ICR mice after an iv injection
Format: in vivo
Measurement conditions: Bone, 2 hr after iv injection
Property label: % dose/organ (% dose/organ)
Express it in % dose/organ; write the number only.

CNc1ccc(-c2ccc3cc(OCCOCCOCCF)ccc3c2)cc1 ... 7.07

In: Name the reported % dose/organ value associated with the molecule CNc1ccc(-c2ccc3nc(OCCOCCOCC[18F])ccc3c2)cc1 [[^18F]34a]
Out: 7.84

In: Name the reported % dose/organ value associated with the molecule CN(C)c1ccc(-c2ccc3nc(OCCOCCOCC[18F])ccc3c2)cc1 [[^18F]32a]
Out: 5.19

In: Name the reported % dose/organ value associated with the molecule CNc1ccc2cc(-c3ccc(OCCOCCOCC[18F])cc3)ccc2c1 [[^18F]19a]
Out: 4.67

====

Experiment summary: Biodistribution in ICR mice after an iv injection
Type: in vivo
Measurement conditions: Muscle, 1 hr after iv injection
Property label: % dose/organ (% dose/organ)
Express it in % dose/organ; write the number only.

// solved cases for % dose/organ follow
CNc1ccc(-c2ccc3nc(OCCOCCOCC[18F])ccc3c2)cc1 [[^18F]34a] ... 13.5
CNc1ccc2cc(-c3ccc(OCCOCCOCC[18F])cc3)ccc2c1 [[^18F]19a] ... 7.86
CN(C)c1ccc(-c2ccc3nc(OCCOCCOCC[18F])ccc3c2)cc1 [[^18F]32a] ... 11.0

Next, consider the following compound.
In: Name the reported % dose/organ value associated with the compound CNc1ccc(-c2ccc3cc(OCCOCCOCCF)ccc3c2)cc1
Out: 10.3

====

Experiment summary: Biodistribution in ICR mice after an iv injection
Format: in vivo
Measurement conditions: Heart, 1 hr after iv injection
Property label: % dose/organ
Please answer in the form of a number followed by its unit of measurement.

CNc1ccc(-c2ccc3nc(OCCOCCOCC[18F])ccc3c2)cc1 [[^18F]34a] ... 0.29 ± 0.03 % dose/organ
CN(C)c1ccc(-c2ccc3nc(OCCOCCOCC[18F])ccc3c2)cc1 [[^18F]32a] ... 0.25 ± 0.03 % dose/organ
CNc1ccc2cc(-c3ccc(OCCOCCOCC[18F])cc3)ccc2c1 [[^18F]19a] ... 0.18 ± 0.01 % dose/organ

Next, consider the following compound.
In: Name the reported % dose/organ value associated with the compound CNc1ccc(-c2ccc3cc(OCCOCCOCCF)ccc3c2)cc1
Out: 0.18 ± 0.01 % dose/organ

====

Experiment summary: Biodistribution in ICR mice after an iv injection
Type: in vivo
Measurement conditions: Brain, 30 min after iv injection
Each record here notes measured % dose/organ.
Express it in % dose/organ; write the number only.

CNc1ccc2cc(-c3ccc(OCCOCCOCC[18F])cc3)ccc2c1 [[^18F]19a] ... 0.59
CNc1ccc(-c2ccc3cc(OCCOCCOCCF)ccc3c2)cc1 ... 0.95
CNc1ccc(-c2ccc3nc(OCCOCCOCC[18F])ccc3c2)cc1 [[^18F]34a] ... 1.02

Next, consider the following compound.
In: Name the reported % dose/organ value associated with the compound CN(C)c1ccc(-c2ccc3nc(OCCOCCOCC[18F])ccc3c2)cc1 [[^18F]32a]
Out: 1.07

====

Experiment summary: Biodistribution in ICR mice after an iv injection
Type: in vivo
Measurement conditions: Lung, 2 min after iv injection
Property label: % dose/organ (% dose/organ)
Express it in % dose/organ; write the number only.

// solved cases for % dose/organ follow
CN(C)c1ccc(-c2ccc3nc(OCCOCCOCC[18F])ccc3c2)cc1 [[^18F]32a] ... 1.54
CNc1ccc(-c2ccc3nc(OCCOCCOCC[18F])ccc3c2)cc1 [[^18F]34a] ... 1.34
CNc1ccc(-c2ccc3cc(OCCOCCOCCF)ccc3c2)cc1 ... 1.08

Next, consider the following molecule.
In: Name the reported % dose/organ value associated with the molecule CNc1ccc2cc(-c3ccc(OCCOCCOCC[18F])cc3)ccc2c1 [[^18F]19a]
Out: 1.76
